target: Cellular tumor antigen p53 (Homo sapiens) (UniProt P04637); test: Primary qHTS for small molecule compounds that upregulate eGFP-tagged delta133p53alpha (in N-terminal) cells. (AID 2060322); settings: NCI-H358 eGFP-delta133p53alpha fluorescence, 24 h; active compounds read high;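 note: cells pre-induced with doxycycline then dosed without doxycycline; series mostly up to about 56 µM; 0% = DMSO vehicle and 100% = reference activator; nearly all actives have a fitted effect of over 75% in size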
Sequence (P04637 whole entry, looked up): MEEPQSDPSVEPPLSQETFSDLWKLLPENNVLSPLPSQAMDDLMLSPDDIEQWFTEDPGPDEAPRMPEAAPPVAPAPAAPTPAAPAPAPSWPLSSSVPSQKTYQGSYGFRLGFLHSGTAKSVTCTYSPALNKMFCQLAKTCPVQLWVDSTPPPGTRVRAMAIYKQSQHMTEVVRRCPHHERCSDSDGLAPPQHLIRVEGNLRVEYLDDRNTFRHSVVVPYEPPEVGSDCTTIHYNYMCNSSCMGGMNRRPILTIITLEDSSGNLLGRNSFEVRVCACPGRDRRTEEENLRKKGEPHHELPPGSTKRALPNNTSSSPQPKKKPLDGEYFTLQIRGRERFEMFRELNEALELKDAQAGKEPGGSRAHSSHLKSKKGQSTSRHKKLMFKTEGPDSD
Inconclusive results are not listed. Calls of active or inactive are those of the source. Calls come from the whole dose curve; as a rule, active = well fitted activation curve with a large enough effect; inconclusive = small, poorly fitted or top-dose-only effect; inactive = no such curve, though single readings can be large or run the other way.
endpoint.label: activation

## Input # return recorded activation for input CC(C)C(=O)c1cn(CC(=O)COc2ccc(Oc3ccccc3)cc2)c2ccc(C(=O)O)cc12
## Output 6.68% (inactive)

## Input # return recorded activation for input C[N+]12CCC(CC1)C(OC(=O)C(O)(c1ccccc1)c1ccccc1)C2 (stereo not given)
## Output -8.47% (inactive)

## Input # return recorded activation for input COc1cc2c(cc1OC)N1C(=O)C[C@@]34C=CC[N@+]5([O-])CC[C@H]2[C@H](CC3)[C@@]145
## Output 5.36% (inactive)

## Input # return recorded activation for input CC(=O)O[C@@H]1CC2C3CCc4cc(OC(=O)c5ccccc5)ccc4C3CCC2(C)[C@H]1OC(C)=O (stereo not given in full)
## Output 6.21% (inactive)

## Input # return recorded activation for input COC(=O)[C@H](NC(=O)c1cc(-c2ccccc2)nc2ccccc12)c1ccccc1
## Output 6.75% (inactive)
